test system: Abutilon theophrasti; assay: Post-emergence herbicidal activity against ABUTH; assay type: in vivo; details: dosage 320 g/ha, rated visually after about 3 weeks
readout type: Post-emergence herbicidal activity in % against ABUTH

# compound, target or test system, result
measured = [
    ("CCCS(=O)(=O)NC(=O)[C@@H]1C[C@H](NC(=O)[C@@]2(C)CC(c3cc(F)cc(F)c3)=NO2)CO1", "Abutilon theophrasti", "80%"),
    ("CN(C)NC(=O)[C@@H]1C[C@H](NC(=O)[C@@]2(C)CC(c3cc(F)cc(F)c3)=NO2)CO1", "Abutilon theophrasti", "80%"),
    ("C[C@]1(C(=O)N[C@@H]2CO[C@H](C(=O)NS(C)(=O)=O)C2)CC(c2cc(F)cc(F)c2)=NO1", "Abutilon theophrasti", "80%"),
    ("CONC(=O)[C@@H]1C[C@H](NC(=O)[C@@]2(C)CC(c3cc(F)cc(F)c3)=NO2)CO1", "Abutilon theophrasti", "80%"),
    ("C=CC1(C(=O)NC2COC(C(=O)NC(C)CC(=O)OCC)C2)CC(c2cc(F)cc(F)c2)=NO1 (stereo not drawn)", "Abutilon theophrasti", "80%"),
    ("C=C[C@]1(C(=O)N[C@@H]2CO[C@H](C(=O)NCCC(=O)OC)C2)CC(c2cc(F)cc(F)c2)=NO1", "Abutilon theophrasti", "80%"),
    ("C=C[C@]1(C(=O)N[C@@H]2CO[C@H](C(=O)NCC(=O)OC)C2)CC(c2cc(F)cc(F)c2)=NO1", "Abutilon theophrasti", "90%"),
    ("C=C[C@]1(C(=O)N[C@@H]2CO[C@H](C(=O)NS(=O)(=O)CCC)C2)CC(c2cc(F)cc(F)c2)=NO1", "Abutilon theophrasti", "90%"),
    ("CN(C)C(=O)[C@@H]1C[C@H](NC(=O)[C@@]2(C)CC(c3cc(F)cc(F)c3)=NO2)CO1", "Abutilon theophrasti", "80%"),
]

###

pest or weed control at 80 g/ha values by entry
tested on: Polygonum convolvulus; experiment: Pre-emergence herbicidal activity against POLCO; type: in vivo; details: Fallopia convolvulus, 504 h, dosage 80 g/ha, scored visually after about 3 weeks vs untreated controls
readout type: pest or weed control at 80 g/ha (%)

# compound, target or test system, readout type, readout number
measured = [
    ("C=C[C@]1(C(=O)N[C@@H]2CO[C@H](C(=O)N(C)C)C2)CC(c2cc(F)cc(F)c2)=NO1 (mixture of isomers) [Example I-17]", "Polygonum convolvulus", "pest or weed control at 80 g/ha", 100),
    ("C=C[C@]1(C(=O)N[C@@H]2CO[C@H](C(=O)NC3CC3)C2)CC(c2cc(F)cc(F)c2)=NO1 (mixture of isomers) [Example I-18]", "Polygonum convolvulus", "pest or weed control at 80 g/ha", 100),
    ("C=C[C@]1(C(=O)N[C@@H]2CO[C@H](C(=O)NS(=O)(=O)C(F)(F)F)C2)CC(c2cc(F)cc(F)c2)=NO1 (mixture of isomers) [Example I-14]", "Polygonum convolvulus", "pest or weed control at 80 g/ha", 100),
    ("CNC(=O)[C@@H]1C[C@H](NC(=O)C2(C)CC(c3cc(F)cc(F)c3)=NO2)CO1 (relative stereo) [Example I-05]", "Polygonum convolvulus", "pest or weed control at 80 g/ha", 90),
    ("C=C[C@]1(C(=O)N[C@@H]2CO[C@H](C(=O)NN(C)C)C2)CC(c2cc(F)cc(F)c2)=NO1 (mixture of isomers) [Example I-15]", "Polygonum convolvulus", "pest or weed control at 80 g/ha", 100),
    ("C=C[C@]1(C(=O)N[C@H]2CO[C@@H](C(=O)NNC(=O)OC(C)(C)C)C2)CC(c2cc(F)cc(F)c2)=NO1 (mixture of isomers) [Example I-19]", "Polygonum convolvulus", "pest or weed control at 80 g/ha", 90),
    ("CC1(C(=O)N[C@@H]2CO[C@H](C(=O)N3CCCC3)C2)CC(c2cc(F)cc(F)c2)=NO1 (relative stereo) [Example I-03]", "Polygonum convolvulus", "pest or weed control at 80 g/ha", 80),
    ("CONC(=O)[C@@H]1C[C@H](NC(=O)C2(C)CC(c3cccc(F)c3)=NO2)CO1 (relative stereo) [Example I-10]", "Polygonum convolvulus", "pest or weed control at 80 g/ha", 90),
    ("C=C[C@]1(C(=O)N[C@@H]2CO[C@H](C(=O)NOCC)C2)CC(c2cc(F)cc(F)c2)=NO1 (mixture of isomers) [Example I-12]", "Polygonum convolvulus", "pest or weed control at 80 g/ha", 100),
    ("CC1(C(=O)N[C@@H]2CO[C@H](C(=O)NC3CC3)C2)CC(c2cc(F)cc(F)c2)=NO1 (relative stereo) [Example I-04]", "Polygonum convolvulus", "pest or weed control at 80 g/ha", 90),
]

###

Post-emergence herbicidal activity in % against VERPE values by entry
test system: Veronica persica; experiment: Post-emergence herbicidal activity against VERPE; format: in vivo; details: dosage 320 g/ha, rated visually after about 3 weeks
readout type: Post-emergence herbicidal activity in % against VERPE (%)

# compound, readout number
data = [
    ("C[C@]1(C(=O)N[C@@H]2CO[C@H](C(=O)NCc3ncc(C(F)(F)F)cc3Cl)C2)CC(c2cc(F)cc(F)c2)=NO1 [Example I-27]", 80),
    ("C=C[C@]1(C(=O)N[C@@H]2CO[C@H](C(=O)NS(=O)(=O)CCC)C2)CC(c2cc(F)cc(F)c2)=NO1 [Example I-29]", 90),
    ("CN(C)C(=O)[C@@H]1C[C@H](NC(=O)[C@@]2(C)CC(c3cc(F)cc(F)c3)=NO2)CO1 [Example I-25]", 80),
    ("C=CC1(C(=O)NC2COC(C(=O)NC(C)CC(=O)OCC)C2)CC(c2cc(F)cc(F)c2)=NO1 (stereo not drawn) [Example I-22]", 80),
    ("C=C[C@]1(C(=O)N[C@@H]2CO[C@H](C(=O)NCC(=O)OC)C2)CC(c2cc(F)cc(F)c2)=NO1 [Example I-21]", 80),
    ("CN(C)NC(=O)[C@@H]1C[C@H](NC(=O)[C@@]2(C)CC(c3cc(F)cc(F)c3)=NO2)CO1 [Example I-26]", 80),
]

###

tested on: Hordeum murinum; assay: Post-emergence herbicidal activity against HORMU; type: in vivo; details: Hordeum murinum, 504 h, dosage 320 g/ha, rated visually after about 3 weeks
readout type: pest or weed control at 320 g/ha (%)

# compound, readout type, scale unit, readout number
data = [
    ("C=C[C@]1(C(=O)N[C@@H]2CO[C@H](C(=O)NOCC)C2)CC(c2cc(F)cc(F)c2)=NO1 (mixture of isomers)", "pest or weed control at 320 g/ha", "%", 90),
    ("C=C[C@]1(C(=O)N[C@@H]2CO[C@H](C(=O)NN(C)C)C2)CC(c2cc(F)cc(F)c2)=NO1 (mixture of isomers)", "pest or weed control at 320 g/ha", "%", 90),
    ("C=C[C@]1(C(=O)N[C@@H]2CO[C@H](C(=O)N(C)C)C2)CC(c2cc(F)cc(F)c2)=NO1 (mixture of isomers)", "pest or weed control at 320 g/ha", "%", 80),
    ("C=C[C@]1(C(=O)N[C@@H]2CO[C@H](C(=O)NC3CC3)C2)CC(c2cc(F)cc(F)c2)=NO1 (mixture of isomers)", "pest or weed control at 320 g/ha", "%", 90),
    ("C=C[C@]1(C(=O)N[C@H]2CO[C@@H](C(=O)NNC(=O)OC(C)(C)C)C2)CC(c2cc(F)cc(F)c2)=NO1 (mixture of isomers)", "pest or weed control at 320 g/ha", "%", 90),
    ("CONC(=O)[C@@H]1C[C@H](NC(=O)C2(C)CC(c3cccc(F)c3)=NO2)CO1 (relative stereo)", "pest or weed control at 320 g/ha", "%", 90),
    ("C=C[C@]1(C(=O)N[C@@H]2CO[C@H](C(=O)NS(C)(=O)=O)C2)CC(c2cc(F)cc(F)c2)=NO1 (mixture of isomers)", "pest or weed control at 320 g/ha", "%", 80),
    ("C=C[C@]1(C(=O)N[C@@H]2CO[C@H](C(=O)NS(=O)(=O)C(F)(F)F)C2)CC(c2cc(F)cc(F)c2)=NO1 (mixture of isomers)", "pest or weed control at 320 g/ha", "%", 80),
    ("C=C[C@]1(C(=O)N[C@@H]2CO[C@H](C(=O)NOC(C)C)C2)CC(c2cc(F)cc(F)c2)=NO1 (mixture of isomers)", "pest or weed control at 320 g/ha", "%", 90),
]
